Consider the following compounds; for each one, report its inhibition at 5 µM.
biological target: Recombinant HIV protease (Human immunodeficiency virus type 1 group M subtype B); construct: Recombinant HIV protease; assay: HIV protease inhibitory activity (cleavage of synthetic hepta-peptide, HPLC); assay type: biochemical; conditions: read-out: HIV protease inhibitory activity (%)

[in] Please look up its inhibition at 5 µM: Cc1c(O)cccc1C(=O)N[C@@H](Cc1ccccc1)[C@H](O)C(=O)N1CSC(C)(C)[C@H]1C(=O)NCc1ccccc1Cl
[out] > 99%

[in] Please look up its inhibition at 5 µM: CC(C)(C)NC(=O)[C@@H]1CSCN1C(=O)[C@@H](O)[C@H](Cc1ccccc1)NC(=O)c1ccc(C(=O)O)cc1
[out] 70.4%

[in] Please look up its inhibition at 5 µM: CC(C)(C)NC(=O)[C@@H]1CSCN1C(=O)[C@@H](O)[C@H](Cc1ccccc1)NC(=O)c1ccccc1
[out] 52%

###

Tested on: MT-4 cell line
Experiment: Cytotoxicity to non-infected MT-4 cell line, MTT method
Assay type: cell-based
Conditions: non-infected MT-4 cells, 5 day culture
Protocol: According to a test method which was already reported in publications (H.Nakashima et al., Antimicrob. Agents Chemother.36, 1249-1255 (1992), etc.,), anti-HIV activity was evaluated, by using MT-4 cell line and HTLV-IIIB virus, MT-4 cells (2.5×10^4 well, MOI:001) infected with said HTLV-IIIB virus just before the addition were into 96-well microtiter plate wherein each well contained various concentration of tested compound. […]
property: Cytotoxicity CC50
Answer with the value and then the unit.

[in] Please look up its Cytotoxicity CC50: Cc1c(O)cccc1C(=O)N[C@@H](Cc1ccccc1)[C@H](O)C(=O)N1CSC[C@H]1C(=O)NC(C)(C)C
[out] 184 mg/L

[in] Please look up its Cytotoxicity CC50: Cc1c(O)cccc1C(=O)N[C@@H](Cc1ccccc1)[C@H](O)C(=O)N1CCC[C@H]1C(=O)NC(C)(C)C
[out] 231 mg/L

[in] Please look up its Cytotoxicity CC50: CCc1c(O)cccc1C(=O)N[C@@H](Cc1ccccc1)[C@H](O)C(=O)N1CSC[C@H]1C(=O)NC(C)(C)C
[out] 168 mg/L

[in] Please look up its Cytotoxicity CC50: Cc1c(O)cccc1C(=O)N[C@@H](Cc1ccccc1)[C@H](O)C(=O)N1CS(=O)(=O)C[C@H]1C(=O)NC(C)(C)C
[out] 146 mg/L

[in] Please look up its Cytotoxicity CC50: CCc1c(O)cccc1C(=O)N[C@@H](Cc1ccccc1)[C@H](O)C(=O)N1CSC(C)(C)[C@H]1C(=O)NC(C)(C)C
[out] 103 mg/L

[in] Please look up its Cytotoxicity CC50: CSC[C@H](NC(=O)COc1cccc2cnccc12)C(=O)N[C@@H](Cc1ccccc1)[C@H](O)C(=O)N1CSC[C@H]1C(=O)NC(C)(C)C [KNI-272, reference compound]
[out] 115 mg/L

###

biological target: Recombinant HIV protease (Human immunodeficiency virus type 1 group M subtype B, UniProt P04585); construct: Recombinant HIV protease; test: HIV protease inhibitory activity (cleavage of synthetic hepta-peptide, HPLC); assay type: biochemical; conditions: read-out: HIV protease inhibitory activity (%)
property: inhibition at 5 µM (%)
Enter your answer as a number in %; do not include the unit.

[in] Please look up its inhibition at 5 µM: Cc1ccccc1C(=O)N[C@@H](Cc1ccccc1)[C@H](O)C(=O)N1CSC[C@H]1C(=O)NC(C)(C)C
[out] 74.9

[in] Please look up its inhibition at 5 µM: Cc1ccccc1CNC(=O)[C@H]1NC[C@@H](Cl)C1C(=O)[C@@H](O)[C@H](Cc1ccccc1)NC(=O)c1cccc(O)c1C (stereo partly shown)
[out] 97.7

[in] Please look up its inhibition at 5 µM: CC(C)(C)NC(=O)[C@@H]1CSCN1C(=O)[C@@H](O)[C@H](Cc1ccccc1)NC(=O)c1cc(O)cc(O)c1
[out] 75.6

[in] Please look up its inhibition at 5 µM: Cc1cccc(C)c1CNC(=O)[C@@H]1CSCN1C(=O)[C@@H](O)[C@H](Cc1ccccc1)NC(=O)c1cccc(O)c1C
[out] 97.9

[in] Please look up its inhibition at 5 µM: Cc1c(O)cccc1C(=O)N[C@@H](Cc1ccccc1)[C@H](O)C(=O)N1CSC[C@H]1C(=O)NCc1ccccc1Cl
[out] 97.4

[in] Please look up its inhibition at 5 µM: Cc1ccccc1CNC(=O)[C@@H]1CSCN1C(=O)[C@@H](O)[C@H](Cc1ccccc1)NC(=O)c1cccc(O)c1C
[out] 96.7

[in] Please look up its inhibition at 5 µM: CC(C)(C)NC(=O)[C@@H]1CSCN1C(=O)[C@@H](O)[C@H](Cc1ccccc1)NC(=O)c1cccc(O)c1
[out] 76

[in] Please look up its inhibition at 5 µM: Cc1c(N)cccc1C(=O)N[C@@H](Cc1ccccc1)[C@H](O)C(=O)N1CSC[C@H]1C(=O)NC(C)(C)C
[out] 81.3

[in] Please look up its inhibition at 5 µM: CCc1c(O)cccc1C(=O)N[C@@H](Cc1ccccc1)[C@H](O)C(=O)N1CSC[C@H]1C(=O)NC(C)(C)C
[out] 97.5

[in] Please look up its inhibition at 5 µM: Cc1c(N)cc(N)cc1C(=O)N[C@@H](Cc1ccccc1)[C@H](O)C(=O)N1CSC[C@H]1C(=O)NC(C)(C)C
[out] 85.2

###

Consider the following molecules; for each one, report its inhibition at 5 µM.
biological target: Recombinant HIV protease (Human immunodeficiency virus type 1 group M subtype B, UniProt P04585); construct: Recombinant HIV protease; test: HIV protease inhibitory activity (cleavage of synthetic hepta-peptide, HPLC); type: biochemical; settings: read-out: HIV protease inhibitory activity (%)
Enter your answer as a number in %; do not include the unit.

[in] Please look up its inhibition at 5 µM: Cc1c(O)cccc1C(=O)N[C@@H](Cc1ccccc1)[C@H](O)C(=O)N1CO[C@H](C)[C@H]1C(=O)NC(C)(C)C
[out] 96.9

[in] Please look up its inhibition at 5 µM: CCc1c(O)cccc1C(=O)N[C@@H](Cc1ccccc1)[C@H](O)C(=O)N1CSC[C@H]1C(=O)NCc1ccccc1C
[out] 98.1

[in] Please look up its inhibition at 5 µM: Cc1cccc(C(=O)N[C@@H](Cc2ccccc2)[C@H](O)C(=O)N2CSC[C@H]2C(=O)NC(C)(C)C)c1C
[out] 77.9

###

Test system: HTLV-IIIB virus
Experiment: Anti-HIV activity: protection of HTLV-IIIB infected MT-4 cells, MTT method
Format: cell-based
Conditions: Human immunodeficiency virus 1, MT4, 120 h; MT-4 cells infected with HTLV-IIIB, 5 day culture
Protocol: The anti-HIV activity of the dipeptide compound of the present invention was evaluated as described below. That is, the inhibitory action of the compound on formation of HIV virus particles which infects T lymphocyte was evaluated by potency to prevent death of T lymphocyte accompanied by said virus infection. […]
Consider the following compounds; for each one, report its EC50.
Enter your answer as a number in µg/mL; do not include the unit.

[in] Please look up its EC50: CCc1c(O)cccc1C(=O)N[C@@H](Cc1ccccc1)[C@H](O)C(=O)N1CSC(C)(C)[C@H]1C(=O)NCc1ccccc1C [Compound of example 38]
[out] 0.18

[in] Please look up its EC50: CCc1c(O)cccc1C(=O)N[C@@H](Cc1ccccc1)[C@H](O)C(=O)N1CSC(C)(C)[C@H]1C(=O)NC(C)(C)C [Compound of example 36]
[out] 0.54

[in] Please look up its EC50: CCc1c(O)cccc1C(=O)N[C@@H](Cc1ccccc1)[C@H](O)C(=O)N1CSC[C@H]1C(=O)NC(C)(C)C [Compound of example 31]
[out] 1.46

[in] Please look up its EC50: Cc1ccccc1CNC(=O)[C@@H]1CSCN1C(=O)[C@@H](O)[C@H](Cc1ccccc1)NC(=O)c1cccc(O)c1C [Compound of example 34]
[out] 5.35

[in] Please look up its EC50: Cc1c(O)cccc1C(=O)N[C@@H](Cc1ccccc1)[C@H](O)C(=O)N1CO[C@H](C)[C@H]1C(=O)NC(C)(C)C [Compound of example 30]
[out] 1.4

[in] Please look up its EC50: CCc1c(O)cccc1C(=O)N[C@@H](Cc1ccccc1)[C@H](O)C(=O)N1CSC[C@H]1C(=O)NCc1ccccc1C [Compound of example 35]
[out] 4.15

###

target: Recombinant HIV protease (Human immunodeficiency virus type 1 group M subtype B, UniProt P04585); construct: Recombinant HIV protease; assay: HIV protease inhibitory activity (cleavage of synthetic hepta-peptide, HPLC); assay type: biochemical; conditions: concentration 50 nM (final), 37° C., 60 min
property: inhibition at 0.05 µM (%)
Enter your answer as a number in %; do not include the unit.

[in] Please look up its inhibition at 0.05 µM: Cc1ccccc1CNC(=O)[C@H]1NC[C@@H](Cl)C1C(=O)[C@@H](O)[C@H](Cc1ccccc1)NC(=O)c1cccc(O)c1C (stereo partly shown)
[out] 76.8

[in] Please look up its inhibition at 0.05 µM: CCCc1c(O)cccc1C(=O)N[C@@H](Cc1ccccc1)[C@H](O)C(=O)N1CSC[C@H]1C(=O)NC(C)(C)C
[out] 17.2

[in] Please look up its inhibition at 0.05 µM: CCCCNC(=O)[C@@H]1CSCN1C(=O)[C@@H](O)[C@H](Cc1ccccc1)NC(=O)c1cccc(O)c1C
[out] 13.4

[in] Please look up its inhibition at 0.05 µM: Cc1cccc(C)c1CNC(=O)[C@@H]1CSCN1C(=O)[C@@H](O)[C@H](Cc1ccccc1)NC(=O)c1cccc(O)c1C
[out] 75.2

[in] Please look up its inhibition at 0.05 µM: Cc1c(O)cccc1C(=O)N[C@@H](Cc1ccccc1)[C@H](O)C(=O)N1CO[C@H](C)[C@H]1C(=O)NC(C)(C)C
[out] 21.5

[in] Please look up its inhibition at 0.05 µM: CCc1c(O)cccc1C(=O)N[C@@H](Cc1ccccc1)[C@H](O)C(=O)N1CSC(C)(C)[C@H]1C(=O)NC(C)(C)C
[out] 83.5

[in] Please look up its inhibition at 0.05 µM: Cc1ccccc1CNC(=O)[C@H]1N(C(=O)[C@@H](O)[C@H](Cc2ccccc2)NC(=O)c2cccc(O)c2C)CSC1(C)C
[out] 95.8
